Test system: PFTK1;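 note: KINOMEscan kinase panel screen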
Construct: gene CDK14
conditionInfo: concentration: 1 μM, replicates: in singlicate; n = 1

{"columns": ["molecule", "%Inh (%)"],
 "data": [
  ["Clc1cc(Cl)cc(Nc2ccnc(Nc3cc(Cl)cc(Cl)c3)n2)c1 [GSK175726]", 0],
  ["Cc1ccccc1-n1cnc2c(N)ncnc21 [SKF-97510]", 0],
  ["Cc1c(Cn2ccn3c(=O)cc(N4CCOCC4)nc23)cccc1C(F)(F)F [GSK2289044]", 13],
  ["Cl.Oc1ccc(-c2nc(-c3ccccc3)[nH]c2-c2ccncc2)cc1 [SB-428218]", 21],
  ["Cc1ccc(-c2cc(-c3c[nH]nc3-c3ccccn3)ccn2)cc1 [GW684088]", 32],
  ["Fc1cccc(COc2nnc(-c3ccc4c(c3)CCO4)o2)c1", 2],
  ["Cn1ccc2ncnc(Oc3ccc(Nc4nc5ccccc5[nH]4)cc3)c21", 0],
  ["COc1ccc(CNC(=O)NC2CCN(c3ccnc(Nc4cc(OC)c(OC)c(OC)c4)n3)C2)cc1 (stereo not drawn) [GSK1379748]", 0],
  ["O=C(Nc1n[nH]c2nc(-c3nccs3)c(Br)cc12)C1CCCC1 [SB-742609]", 26]
]}
